Measured values drawn from patent US11013780B2 for this set.

assay.protocol: Pharmacokinetics in dogs after SC and IV administration
condition.label: dog, in vivo, sc, 10 mg/kg
Where a SMILES comes first, the peptide text is derived from it. [ ]: non-standard residue; d: D form. Arg(Me) = CNC(=N)NCCC[C@H](N)C(=O)O; Hyp = O=C(O)[C@@H]1C[C@@H](O)CN1; azaGly = NNC(=O)O
assay.metric: bioavailability

So, CNC(=N)NCCC[C@H](NC(=O)[C@H](CC(C)C)NC(=O)NNC(=O)[C@H](Cc1ccccc1)NC(=O)[C@@H](NC(=O)[C@H](CC(N)=O)NC(=O)[C@@H]1C[C@@H](O)CN1C(=O)[C@@H](Cc1ccc(O)cc1)NC(C)=O)[C@@H](C)O)C(=O)N[C@@H](Cc1c[nH]c2ccccc12)C(N)=O [Compound 1] (Ac-[dY][Hyp]NTF[azaGly]L[Arg(Me)]W-NH2) ? Its bioavailability was 92.7%

----------
assay.protocol: Single dose PK, phase 1, healthy Japanese men
Format: in vivo, human
condition.label: male, human, urine, sc, 0.001 mg, single SC bolus 0.001 mg, mean, read-out: Fe (urine)
Where a SMILES comes first, the peptide text is derived from it. [ ]: non-standard residue; d: D form. Arg(Me) = CNC(=N)NCCC[C@H](N)C(=O)O; Hyp = O=C(O)[C@@H]1C[C@@H](O)CN1; azaGly = NNC(=O)O
assay.metric: dose excreted (%)
Your answer is read as %, so omit the unit and give the number.

dose excreted measured on CC(=O)O.CNC(=N)NCCC[C@H](NC(=O)[C@H](CC(C)C)NC(=O)NNC(=O)[C@H](Cc1ccccc1)NC(=O)[C@@H](NC(=O)[C@H](CC(N)=O)NC(=O)[C@@H]1C[C@@H](O)CN1C(=O)[C@@H](Cc1ccc(O)cc1)NC(C)=O)[C@@H](C)O)C(=O)N[C@@H](Cc1c[nH]c2ccccc12)C(N)=O [API-MA] (Ac-[dY][Hyp]NTF[azaGly]L[Arg(Me)]W-NH2) = 0

----------
assay.protocol: Single dose PK, phase 1, healthy Japanese men
Assay type: in vivo, human
condition.label: male, human, urine, sc, 0.01 mg, single SC bolus 0.01 mg, mean, read-out: Fe (urine)
Where a SMILES comes first, the peptide text is derived from it. [ ]: non-standard residue; d: D form. Arg(Me) = CNC(=N)NCCC[C@H](N)C(=O)O; Hyp = O=C(O)[C@@H]1C[C@@H](O)CN1; azaGly = NNC(=O)O
assay.metric: dose excreted
Please provide the amount together with its unit, number first.

So, CC(=O)O.CNC(=N)NCCC[C@H](NC(=O)[C@H](CC(C)C)NC(=O)NNC(=O)[C@H](Cc1ccccc1)NC(=O)[C@@H](NC(=O)[C@H](CC(N)=O)NC(=O)[C@@H]1C[C@@H](O)CN1C(=O)[C@@H](Cc1ccc(O)cc1)NC(C)=O)[C@@H](C)O)C(=O)N[C@@H](Cc1c[nH]c2ccccc12)C(N)=O [API-MA] (Ac-[dY][Hyp]NTF[azaGly]L[Arg(Me)]W-NH2) ? Its dose excreted was 5.4%

----------
assay.protocol: Single dose PK, phase 1, healthy Japanese men
Type: in vivo, human
condition.label: male, human, plasma, sc, 0.25 mg, single SC bolus 0.25 mg, mean, read-out: T½ (converted)
Where a SMILES comes first, the peptide text is derived from it. [ ]: non-standard residue; d: D form. Arg(Me) = CNC(=N)NCCC[C@H](N)C(=O)O; Hyp = O=C(O)[C@@H]1C[C@@H](O)CN1; azaGly = NNC(=O)O
assay.metric: half-life (h)
A number alone suffices; assume h.

The molecule identified as CC(=O)O.CNC(=N)NCCC[C@H](NC(=O)[C@H](CC(C)C)NC(=O)NNC(=O)[C@H](Cc1ccccc1)NC(=O)[C@@H](NC(=O)[C@H](CC(N)=O)NC(=O)[C@@H]1C[C@@H](O)CN1C(=O)[C@@H](Cc1ccc(O)cc1)NC(C)=O)[C@@H](C)O)C(=O)N[C@@H](Cc1c[nH]c2ccccc12)C(N)=O [API-MA] (Ac-[dY][Hyp]NTF[azaGly]L[Arg(Me)]W-NH2) registered its half-life at 4.09
